Record form. Attribute: Luciferase Assay % Lum. Fill in for each entry.
biological target: full-length P. pyralis luciferase (Photinus pyralis, UniProt P08659, K549A/L550V/N119G/N50D/S548I); assay type: cell-based; settings: CC_NCI screening; full-length luciferase counter-screen luminescence; normalized to on-plate 0.3% DMSO controls
Sequence (P08659 whole entry N50D/N119G/S548I/K549A/L550V, looked up): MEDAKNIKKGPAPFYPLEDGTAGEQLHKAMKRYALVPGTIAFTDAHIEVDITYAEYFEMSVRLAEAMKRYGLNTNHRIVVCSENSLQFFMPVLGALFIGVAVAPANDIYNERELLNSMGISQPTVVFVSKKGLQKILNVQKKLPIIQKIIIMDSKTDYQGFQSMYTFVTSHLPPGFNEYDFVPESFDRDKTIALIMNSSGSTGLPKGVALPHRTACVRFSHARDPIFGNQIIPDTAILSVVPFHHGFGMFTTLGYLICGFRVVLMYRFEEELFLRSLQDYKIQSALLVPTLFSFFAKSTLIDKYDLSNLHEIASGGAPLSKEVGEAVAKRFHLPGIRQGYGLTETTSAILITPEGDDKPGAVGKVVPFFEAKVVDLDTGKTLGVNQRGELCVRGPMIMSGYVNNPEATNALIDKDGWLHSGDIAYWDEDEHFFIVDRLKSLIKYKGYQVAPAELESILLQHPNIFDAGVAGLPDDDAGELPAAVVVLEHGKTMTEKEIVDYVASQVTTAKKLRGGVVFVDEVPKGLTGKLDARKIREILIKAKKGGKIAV
Please reply with the bare figure in % and do not write the unit itself.

// CO[C@H]1C[C@@H]2CC[C@@H](C)[C@@](O)(O2)C(=O)C(=O)N2CCCC[C@H]2C(=O)O[C@H]([C@H](C)C[C@@H]2CC[C@@H](OC(=O)C(C)(CO)CO)[C@H](OC)C2)CC(=O)[C@H](C)/C=C(\C)[C@@H](O)[C@@H](OC)C(=O)[C@H](C)C[C@H](C)/C=C/C=C/C=C/1C [TEMSIROLIMUS] : Luciferase Assay % Lum value = 65.73

// O=C(O)C(=O)O.[NH-][C@@H]1CCCC[C@H]1[NH-].[Pt+2] [Oxaliplatin] : Luciferase Assay % Lum value = 102.65

// Cc1ccc(Nc2nccc(N(C)c3ccc4c(C)n(C)nc4c3)n2)cc1S(N)(=O)=O.Cl [Pazopanib hydrochloride] : Luciferase Assay % Lum value = 59.40

// CC(C)C[C@H](NC(=O)[C@H](Cc1ccccc1)NC(=O)c1cnccn1)B(O)O [Bortezomib] : Luciferase Assay % Lum value = 83.42

// CN(C)S(=O)(=O)c1ccc2c(c1)/C(=C/c1cc3c([nH]1)CCCC3)C(=O)N2 [SU 6656] : Luciferase Assay % Lum value = 101.36

// Cn1cc(C2=C(c3cn(C4CCN(Cc5ccccn5)CC4)c4ccccc34)C(=O)NC2=O)c2ccccc21 [ENZASTAURIN] : Luciferase Assay % Lum value = 90.70

###

target: FGF14:Nav1.6 C-tail complex (Homo sapiens, UniProt Q92915+Q9UQD0); construct: polymerase chain reaction (PCR) amplification of the FGF14 open reading frame (nt 1–855); C-terminal fragment of Nav1.6 (amino acids 1763–1976) fused with CD4ΔC-tail (amino acids 1–395); expressed in transfected cells; assay: Split-luciferase complementation assay (LCA) in Clone V double stable HEK293 cells; type: cell-based; settings: CC_NCI screening; LCA luminescence, biological replicate Set 2; normalized to on-plate 0.3% DMSO controls (n=16 per plate)
Sequence (Q92915 1-252 isoform Q92915-2): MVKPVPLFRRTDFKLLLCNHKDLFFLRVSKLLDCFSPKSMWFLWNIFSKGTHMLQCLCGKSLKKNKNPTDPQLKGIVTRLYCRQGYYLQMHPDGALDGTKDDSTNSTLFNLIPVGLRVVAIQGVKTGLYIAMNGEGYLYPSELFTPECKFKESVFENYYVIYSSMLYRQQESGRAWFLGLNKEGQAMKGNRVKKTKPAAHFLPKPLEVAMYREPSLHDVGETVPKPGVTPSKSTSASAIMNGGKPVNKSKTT
Sequence (Q9UQD0 1763-1976 limits assumed): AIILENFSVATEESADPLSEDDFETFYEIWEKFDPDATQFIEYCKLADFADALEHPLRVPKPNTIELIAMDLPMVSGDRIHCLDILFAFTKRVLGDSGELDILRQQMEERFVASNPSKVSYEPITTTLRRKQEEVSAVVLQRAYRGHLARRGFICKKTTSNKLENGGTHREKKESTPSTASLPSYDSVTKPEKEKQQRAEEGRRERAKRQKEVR
Given measured Split Luciferase Assay %Lum Set 2, output Condition met if it is greater than or equal to 90% and Condition not met if not.

Task: Decide: is the reported value of Split Luciferase Assay %Lum Set 2 for Cn1nnc2c(C(N)=O)ncn2c1=O [Temozolomide] equal to or greater than 90%?
Result: Condition met

Task: Decide: is the reported value of Split Luciferase Assay %Lum Set 2 for "Cn1c(=O)n(-c2ccc(C(C)(C)C#N)cc2)c2c3cc(-c4cnc5ccccc5c4)ccc3ncc21" equal to or greater than 90%?
Result: Condition met

Task: Decide: is the reported value of Split Luciferase Assay %Lum Set 2 for CC(C)C[C@H](NC(=O)[C@H](Cc1ccccc1)NC(=O)c1cnccn1)B(O)O [BORTEZOMIB] equal to or greater than 90%?
Result: Condition not met

Task: Decide: is the reported value of Split Luciferase Assay %Lum Set 2 for "Cc1ccc(C(=O)Nc2ccc(CN3CCN(C)CC3)c(C(F)(F)F)c2)cc1C#Cc1cnc2cccnn12" equal to or greater than 90%?
Result: Condition not met

Task: Decide: is the reported value of Split Luciferase Assay %Lum Set 2 for "COc1cc2ncnc(Nc3ccc(F)c(Cl)c3)c2cc1OCCCN1CCOCC1" equal to or greater than 90%?
Result: Condition met

Task: Decide: is the reported value of Split Luciferase Assay %Lum Set 2 for "CC1(C)CCC(c2ccc(Cl)cc2)=C(CN2CCN(c3ccc(C(=O)NS(=O)(=O)c4ccc(N[C@H](CCN5CCOCC5)CSc5ccccc5)c(S(=O)(=O)C(F)(F)F)c4)cc3)CC2)C1" equal to or greater than 90%?
Result: Condition not met

Task: Decide: is the reported value of Split Luciferase Assay %Lum Set 2 for "Cc1cccc(Nc2nc(-c3ccncc3)cs2)c1" equal to or greater than 90%?
Result: Condition not met

Task: Decide: is the reported value of Split Luciferase Assay %Lum Set 2 for "Nc1nc(Cl)nc2c1ncn2[C@@H]1O[C@H](CO)[C@@H](O)[C@@H]1F" equal to or greater than 90%?
Result: Condition met

Task: Decide: is the reported value of Split Luciferase Assay %Lum Set 2 for "Cc1ccc(F)c(NC(=O)Nc2ccc(-c3cccc4[nH]nc(N)c34)cc2)c1" equal to or greater than 90%?
Result: Condition not met

Task: Decide: is the reported value of Split Luciferase Assay %Lum Set 2 for "CO[C@H]1C(=O)[C@]2(C)[C@@H](OC)C[C@H]3OC[C@@]3(OC(C)=O)[C@H]2[C@H](OC(=O)c2ccccc2)[C@]2(O)C[C@H](OC(=O)[C@H](O)[C@@H](NC(=O)OC(C)(C)C)c3ccccc3)C(C)=C1C2(C)C" equal to or greater than 90%?
Result: Condition met

Task: Decide: is the reported value of Split Luciferase Assay %Lum Set 2 for "CO[C@H]1C[C@@H]2CC[C@@H](C)[C@@](O)(O2)C(=O)C(=O)N2CCCC[C@H]2C(=O)O[C@H]([C@H](C)C[C@@H]2CC[C@@H](O)[C@H](OC)C2)CC(=O)[C@H](C)/C=C(\C)[C@@H](O)[C@@H](OC)C(=O)[C@H](C)C[C@H](C)/C=C/C=C/C=C/1C" equal to or greater than 90%?
Result: Condition not met

Task: Decide: is the reported value of Split Luciferase Assay %Lum Set 2 for "N#C/C(=C/c1ccc(O)c(O)c1)C(=O)NCc1ccccc1" equal to or greater than 90%?
Result: Condition met
